# System name: CgDHFR (Candida glabrata (strain ATCC 2001 / BCRC 20586 / JCM 3761 / NBRC 0622 / NRRL Y-65 / CBS 138) (Yeast) (Nakaseomyces glabratus), UniProt Q6FPH0)
# Sequence (Q6FPH0 1-217): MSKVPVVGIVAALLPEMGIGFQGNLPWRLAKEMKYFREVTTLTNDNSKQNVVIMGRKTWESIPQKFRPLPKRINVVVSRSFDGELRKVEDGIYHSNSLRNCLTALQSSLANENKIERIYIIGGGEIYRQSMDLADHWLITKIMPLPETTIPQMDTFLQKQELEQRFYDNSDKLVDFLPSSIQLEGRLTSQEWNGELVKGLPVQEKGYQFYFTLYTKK
# Protocol text: biochemical
# Study conditions: Table 7, hDHFR vs CgDHFR
The threshold is 5. Values of Selectivity beneath it are tagged 1; values meeting or exceeding it are tagged 0.

Molecule: COc1cc(C(C)C#Cc2c(C)nc(N)nc2N)cc(N2CCOCC2)c1 (stereo not drawn) [Compound 152]
Category label: 0
//
Molecule: CCc1nc(N)nc(N)c1C#CC(C)c1cc(OC)cc(N2CCOCC2)c1 (stereo not drawn) [Compound 153]
Category label: 0
//
Molecule: COc1cc(C(C)C#Cc2c(C)nc(N)nc2N)cc(N2CCNCC2)c1 (stereo not drawn) [Compound 159]
Category label: 1

Now, please, on to the next molecule.
Ask | A record lists COc1cc(C(C)C#Cc2c(C)nc(N)nc2N)cc(N2CCN(C)CC2)c1 (stereo not drawn) [Compound 158] . Is its Selectivity below 5?
Reply | 0
